Target: hLTBP1-proTGFβ1 complex made by transfected cells (cell-based potency assay) (human, UniProt Q14766 347-1721; P01137 30-390)
Sequence (Q14766 347-1721, chain 1 of 2): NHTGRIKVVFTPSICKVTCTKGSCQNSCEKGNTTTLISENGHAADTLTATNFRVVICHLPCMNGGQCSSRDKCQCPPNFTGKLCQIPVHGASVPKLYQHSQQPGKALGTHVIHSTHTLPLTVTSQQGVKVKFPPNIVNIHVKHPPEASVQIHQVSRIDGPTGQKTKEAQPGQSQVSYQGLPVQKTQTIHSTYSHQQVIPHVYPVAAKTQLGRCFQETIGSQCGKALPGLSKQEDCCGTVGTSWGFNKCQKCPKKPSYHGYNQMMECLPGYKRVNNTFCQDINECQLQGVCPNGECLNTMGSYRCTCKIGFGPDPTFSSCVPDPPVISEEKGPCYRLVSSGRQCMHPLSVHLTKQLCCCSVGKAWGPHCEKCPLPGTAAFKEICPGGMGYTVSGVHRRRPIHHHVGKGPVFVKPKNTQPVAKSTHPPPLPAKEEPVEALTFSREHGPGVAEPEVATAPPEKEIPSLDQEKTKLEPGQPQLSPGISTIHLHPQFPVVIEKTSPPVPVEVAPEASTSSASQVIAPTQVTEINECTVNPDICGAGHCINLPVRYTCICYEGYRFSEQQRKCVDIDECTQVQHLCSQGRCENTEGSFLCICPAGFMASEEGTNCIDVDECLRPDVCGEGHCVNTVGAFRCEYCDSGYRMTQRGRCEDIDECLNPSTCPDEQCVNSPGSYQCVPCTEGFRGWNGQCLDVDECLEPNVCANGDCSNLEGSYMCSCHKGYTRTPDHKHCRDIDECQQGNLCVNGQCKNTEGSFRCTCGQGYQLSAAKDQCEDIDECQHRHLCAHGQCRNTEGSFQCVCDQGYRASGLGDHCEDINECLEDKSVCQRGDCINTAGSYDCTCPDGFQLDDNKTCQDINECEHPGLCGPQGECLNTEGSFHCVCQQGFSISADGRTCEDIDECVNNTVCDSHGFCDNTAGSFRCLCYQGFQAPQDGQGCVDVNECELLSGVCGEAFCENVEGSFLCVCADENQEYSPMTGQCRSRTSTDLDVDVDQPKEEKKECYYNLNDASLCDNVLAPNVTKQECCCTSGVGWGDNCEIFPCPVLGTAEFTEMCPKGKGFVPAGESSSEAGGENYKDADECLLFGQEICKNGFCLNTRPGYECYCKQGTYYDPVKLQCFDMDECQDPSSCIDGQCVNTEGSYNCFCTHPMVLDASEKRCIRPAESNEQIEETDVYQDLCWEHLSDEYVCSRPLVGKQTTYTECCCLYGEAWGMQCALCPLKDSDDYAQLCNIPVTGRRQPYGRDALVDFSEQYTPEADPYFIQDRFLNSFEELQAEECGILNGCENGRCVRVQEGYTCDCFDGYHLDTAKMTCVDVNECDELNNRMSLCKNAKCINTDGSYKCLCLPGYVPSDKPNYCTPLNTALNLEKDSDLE
Sequence (P01137 30-390, chain 2 of 2): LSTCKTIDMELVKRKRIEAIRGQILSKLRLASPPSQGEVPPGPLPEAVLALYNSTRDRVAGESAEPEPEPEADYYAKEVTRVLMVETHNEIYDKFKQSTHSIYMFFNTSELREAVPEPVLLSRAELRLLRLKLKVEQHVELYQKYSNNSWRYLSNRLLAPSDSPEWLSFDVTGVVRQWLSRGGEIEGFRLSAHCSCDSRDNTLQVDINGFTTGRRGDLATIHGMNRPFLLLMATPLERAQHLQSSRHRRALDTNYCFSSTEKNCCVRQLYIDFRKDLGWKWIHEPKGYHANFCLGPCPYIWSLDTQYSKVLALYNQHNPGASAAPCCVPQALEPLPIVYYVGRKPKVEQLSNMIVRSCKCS
Test: cell-based or functional assay
Recorded IC50, reporter cell assay of TGFβ1 activation by entry
Test readout: IC50, reporter cell assay of TGFβ1 activation (nM)

[
  {
    "Binder": "Ab33 (antibody, IgG4, V domains shown) VH: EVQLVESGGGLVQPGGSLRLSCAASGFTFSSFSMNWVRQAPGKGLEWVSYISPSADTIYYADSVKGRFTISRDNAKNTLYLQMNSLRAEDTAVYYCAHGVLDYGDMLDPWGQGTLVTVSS VL: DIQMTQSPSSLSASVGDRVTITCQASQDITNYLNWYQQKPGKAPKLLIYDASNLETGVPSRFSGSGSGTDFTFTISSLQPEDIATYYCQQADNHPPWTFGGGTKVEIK",
    "Value measured": 1.56
  },
  {
    "Binder": "Ab19 (antibody, IgG4, V domains shown) VH: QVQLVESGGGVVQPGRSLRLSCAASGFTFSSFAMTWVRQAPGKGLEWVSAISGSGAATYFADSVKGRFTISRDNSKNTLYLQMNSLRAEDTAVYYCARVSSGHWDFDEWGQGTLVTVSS VL: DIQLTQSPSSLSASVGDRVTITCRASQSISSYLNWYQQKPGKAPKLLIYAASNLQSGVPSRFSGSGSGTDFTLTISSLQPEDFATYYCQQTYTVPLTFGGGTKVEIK",
    "Value measured": 1.66
  },
  {
    "Binder": "Ab26 (antibody, IgG4, V domains shown) VH: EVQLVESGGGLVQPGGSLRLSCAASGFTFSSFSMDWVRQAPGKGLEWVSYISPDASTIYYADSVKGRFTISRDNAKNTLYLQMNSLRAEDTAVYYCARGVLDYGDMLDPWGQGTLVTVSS VL: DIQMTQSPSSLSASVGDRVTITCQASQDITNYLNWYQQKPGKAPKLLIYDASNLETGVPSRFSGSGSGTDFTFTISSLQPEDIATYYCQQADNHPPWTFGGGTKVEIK",
    "Value measured": 0.713
  },
  {
    "Binder": "Ab1 (antibody, V domains shown) VH: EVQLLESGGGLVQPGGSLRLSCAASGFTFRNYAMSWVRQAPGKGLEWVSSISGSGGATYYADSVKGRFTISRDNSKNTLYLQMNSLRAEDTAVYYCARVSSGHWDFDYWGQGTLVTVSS VL: DIQLTQSPSSLSASVGDRVTITCQASQDISNFLNWYQQKPGKAPKLLIYDASNLETGVPSRFSGSGSGTDFTFTISSLQPEDIATYYCQQVFNPPLTFGGGTKVEIK",
    "Value measured": 14.5
  }
]
